Field: activation. Provide a value for each of the molecules that follow.
Test system: DAF-12 nuclear receptor (Haemonchus contortus)
EXPERIMENTAL_PROTOCOL: hcDAF-12 driven luciferase reporter activation – cell-based, luminescence, HEK293, lit1-tk-luc reporter, primary screen (AID 652067);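 note: 100% = response to 3 µM Δ7-dafachronic acid high control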
SETTINGS: HEK293 hcDAF-12 lit1-tk-luc reporter, at 6.8 µM, stronger effect = higher value, 0% DMSO, 100% Δ7-dafachronic acid
In all, about 370,000 compounds went through this assay and about 5,400 (1.5%) were called active. For the sample, actives were picked, then their nearest neighbours and some compounds at random.
State just the number; it will be interpreted in %.

Query: Enter reported activation observed with DAF-12 nuclear receptor (Haemonchus contortus) for COCCN1CCN(C(=O)c2cc(COc3ccc(F)cc3Cl)on2)CC1
Reply: -1.75

Query: Moving on to COC(=O)[C@]12C[C@H](CC(=O)NCCc3ccccc3OC)C(=O)N(Cc3ccco3)C1=C[C@H](C(C)C)O[C@@H]2C1CC1
Reply: -3.62

Query: Now this one: O=C(c1cc(-c2ccc(O)cc2)on1)N1CCOCC1
Reply: 6.07

Query: Ok, now COc1ccc([C@H]2OC(=O)C[C@H]2C(=O)N2CCN(c3ccccc3F)CC2)cc1OC
Reply: -0.81

Query: Now consider CS(=O)(=O)N(Cc1ccccc1Cl)c1ccc(C(=O)NCc2cccnc2)cc1 .
Reply: -2.13

Query: # iterate: Clc1ccc(Cc2nnc(-c3cccs3)o2)cc1
Reply: -0.27

Query: Please answer likewise for O=C(c1cc(-c2ccc(Cl)s2)nc2ccccc12)N1CCOCC1
Reply: -1.34

Query: And what about the molecule Cc1cc(C)nc(NC(=S)N2CCN(c3ccc(C(F)(F)F)cn3)CC2)c1 ?
Reply: -1.92

Query: Another molecule to look at: N#Cc1ccc(OCC(=O)Nc2nc(-c3ccccn3)cs2)cc1
Reply: -0.6

Query: Repeat for the following molecule: Cc1ccc(O)c(NC(=O)c2cc(-c3ccco3)on2)c1
Reply: 0.32

Query: Next up: COC(=O)[C@]12C[C@H](CC(=O)NCc3cccc(C(F)(F)F)c3)C(=O)N(Cc3ccc4c(c3)OCO4)C1=C[C@H](COCc1ccccc1)O[C@@H]2C
Reply: 0.41

Query: Subsequent entry: O=C(c1cc(-c2ccccc2O)on1)N1CCCC1
Reply: 7.33

Query: Next: COc1cc(Cl)ccc1OCc1cc(C(=O)N2CC[C@@H]3CCCC[C@H]3C2)no1
Reply: 1.66

Query: Subsequent entry: CC(C)(C)NC(=O)C(c1cccnc1)N(C(=O)c1cnco1)c1ccc(C(C)(C)C)cc1 (stereo unspecified)
Reply: -2.31

Query: Same again, this time with O=C(Nc1cccnc1Cl)c1cc(-c2ccccc2O)on1
Reply: 6.07

Query: Also need O=C(c1cc(COc2ccc(F)cc2F)on1)N1CCOCC1 , thanks.
Reply: 1.67

Query: Field entry: Cc1ccc(C2Nc3cccc4cccc(c34)N2)cc1
Reply: 6.38

Query: Try this molecule next: N#CCC[C@H]1CC[C@]2(CCCN(Cc3ccc(Cl)cc3)C2)O1
Reply: -0.47

Query: Queued: Cc1cccc(-n2c(O)c(C=Nc3ccccc3N)c(=O)[nH]c2=O)c1
Reply: 6.08

Query: Cool, now CCCN1C(=O)c2[nH]nc(-c3ccccc3)c2C1c1ccccc1 (stereo unspecified)
Reply: -1.32

Query: What about this molecule? O=C(Nc1ccccc1C(F)(F)F)c1cc(-c2ccc(O)cc2)on1
Reply: -0.51
